Below, each of the molecules is paired with its reported pEC200 value.
targetUnderTest: AMP-activated protein kinase, AMPK (Homo sapiens) (UniProt P54646+O43741+P54619+Q9UGJ0+Q9Y478+Q13131+Q9UGI9)
experiment: Activation of recombinant human AMPK by FRET assay

As a guide, the following entries are already answered.
Cc1ccn(-c2c(O)c3cc(-c4ccc(N5CCCC5)cc4)c(Cl)cc3[nH]c2=O)n1 ... < 5
Cc1cc(-c2c(O)c3cc(-c4ccc(N(C)C)cc4)c(Cl)cc3[nH]c2=O)no1 ... < 5
COc1cccc(-c2ccc(-c3cc4c(O)c(-n5cccn5)c(=O)[nH]c4cc3Cl)cc2)c1 ... < 5
Cc1nc(-c2c(O)c3cc(-c4ccc(N(C)C)cc4)c(Cl)cc3[nH]c2=O)c(C)s1 ... < 5

--- query ---
Would you mind telling me what pEC200 value was observed for Cc1nc(-c2c(O)c3cc(-c4ccc(N5CCCCC5)cc4)c(Cl)cc3[nH]c2=O)cs1 ? < 5

###

targetUnderTest: AMP-activated protein kinase, AMPK
experiment: Activation of recombinant human AMPK by FRET assay
attributeMeasured: pEC50

A selection of reference data follows.
Cc1nc(-c2c(O)c3cc(-c4ccc(N5CCCCC5)cc4)c(Cl)cc3[nH]c2=O)cs1 ... < 5.5
Cc1nc(-c2c(O)c3cc(-c4ccc(N(C)C)cc4)c(Cl)cc3[nH]c2=O)c(C)s1 ... < 5.5
COc1cccc(-c2ccc(-c3cc4c(O)c(-n5cccn5)c(=O)[nH]c4cc3Cl)cc2)c1 ... < 5.5
Cc1ccn(-c2c(O)c3cc(-c4ccc(N5CCCC5)cc4)c(Cl)cc3[nH]c2=O)n1 ... < 5.5

Alright, here's another compound for you.
What does the data say about its pEC50? Entry: Cc1cc(-c2c(O)c3cc(-c4ccc(N(C)C)cc4)c(Cl)cc3[nH]c2=O)no1 < 5.5
